molecular target: Prostaglandin G/H synthase 1 (Homo sapiens)
Sequence (P23219 whole entry): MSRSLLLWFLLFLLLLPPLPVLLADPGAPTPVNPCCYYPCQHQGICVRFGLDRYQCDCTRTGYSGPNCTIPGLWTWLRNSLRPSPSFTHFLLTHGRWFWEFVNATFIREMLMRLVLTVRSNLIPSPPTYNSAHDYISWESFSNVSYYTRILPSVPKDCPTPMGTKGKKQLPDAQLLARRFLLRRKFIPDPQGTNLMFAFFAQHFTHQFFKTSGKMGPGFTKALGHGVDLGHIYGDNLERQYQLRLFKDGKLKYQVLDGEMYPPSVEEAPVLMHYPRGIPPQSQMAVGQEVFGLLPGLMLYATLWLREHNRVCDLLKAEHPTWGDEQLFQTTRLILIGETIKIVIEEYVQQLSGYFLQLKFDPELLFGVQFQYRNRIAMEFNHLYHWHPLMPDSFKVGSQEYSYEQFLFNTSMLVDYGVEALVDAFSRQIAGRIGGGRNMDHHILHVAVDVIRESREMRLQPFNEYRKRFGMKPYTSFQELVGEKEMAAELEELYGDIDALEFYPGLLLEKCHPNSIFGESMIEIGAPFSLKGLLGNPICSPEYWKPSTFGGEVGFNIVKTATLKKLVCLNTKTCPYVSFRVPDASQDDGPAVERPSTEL
Below: a set of entries, each annotated with reported IC50.
metric: IC50 (µM)

structureSmilesString | metric | units | qualifierSymbol | dataValue
COC(=O)/C(=C1/OC(=O)C(c2ccccc2)=C1O)c1ccccc1 | IC50 | µM | = | 676
COC(=O)[C@@H](c1ccccc1)[C@H](C1=C(O)/C(=C/c2ccccc2)OC1=O)c1ccccc1 | IC50 | µM | > | 234
